A collection of compounds and their measured relative viability
tested on: 201T; assay: relative viability (nuclei count vs DMSO), 5 days (fraction); higher = more cells survive; conditions: first compound 1 µM
Keep the answer to the number alone.

Compound	Test System	relative viability
CCN(CC)CCCCNc1ncc2cc(-c3cc(OC)cc(OC)c3)c(NC(=O)NC(C)(C)C)nc2n1 + O=C(c1cc(Cc2n[nH]c(=O)c3ccccc23)ccc1F)N1CCN(C(=O)C2CC2)CC1 [Olaparib] (partner 8 µM)	201T	0.719
O=c1cc(N2CCOCC2)oc2c(-c3cccc4c3sc3ccccc34)cccc12 + C[C@]1(O)C[C@@H](c2nc(-c3ccc4ccc(-c5ccccc5)nc4c3)c3c(N)nccn32)C1 [Linsitinib] (partner 1 µM)	201T	1.05
CCN(CC)CCCCNc1ncc2cc(-c3cc(OC)cc(OC)c3)c(NC(=O)NC(C)(C)C)nc2n1 + CC1(C)CCC(c2ccc(Cl)cc2)=C(CN2CCN(c3ccc(C(=O)NS(=O)(=O)c4ccc(N[C@H](CCN5CCOCC5)CSc5ccccc5)c(S(=O)(=O)C(F)(F)F)c4)cc3)CC2)C1 [Navitoclax] (partner 0.5 µM)	201T	1.19

Alright, here's another compound for you.
Task: Give relative viability for the following compound: CCN(CC)CCCCNc1ncc2cc(-c3cc(OC)cc(OC)c3)c(NC(=O)NC(C)(C)C)nc2n1 + Cc1cc(Nc2cc(N3CCN(C)CC3)nc(Sc3ccc(NC(=O)C4CC4)cc3)n2)n[nH]1 [Tozasertib] (partner 0.1 µM)
Result: 0.721

----------
Consider the following compounds and their measured relative viability readings.
test system: NCI-H1975; test: relative viability (nuclei count vs DMSO), 5 days (fraction); higher = more cells survive; conditions: first compound 0.01 µM
Lab note: record just the number, no unit beside it.

As a guide, the following entries are already answered.
Compound	relative viability
CCN(CC)CCCCNc1ncc2cc(-c3cc(OC)cc(OC)c3)c(NC(=O)NC(C)(C)C)nc2n1 + C[C@]1(O)C[C@@H](c2nc(-c3ccc4ccc(-c5ccccc5)nc4c3)c3c(N)nccn32)C1 [Linsitinib] (partner 1 µM)	0.976
O=c1cc(N2CCOCC2)oc2c(-c3cccc4c3sc3ccccc34)cccc12 + CS(=O)(=O)N1CCN(Cc2cc3nc(-c4cccc5[nH]ncc45)nc(N4CCOCC4)c3s2)CC1 [Pictilisib] (partner 1 µM)	0.272
O=c1cc(N2CCOCC2)oc2c(-c3cccc4c3sc3ccccc34)cccc12 + CS(=O)(=O)CCNCc1ccc(-c2ccc3ncnc(Nc4ccc(OCc5cccc(F)c5)c(Cl)c4)c3c2)o1 [Lapatinib] (partner 2 µM)	0.856

Could you now consider this next compound?
Task: Kindly indicate its recorded relative viability. Item: CCN(CC)CCCCNc1ncc2cc(-c3cc(OC)cc(OC)c3)c(NC(=O)NC(C)(C)C)nc2n1 + CCNC(=O)c1noc(-c2cc(C(C)C)c(O)cc2O)c1-c1ccc(CN2CCOCC2)cc1 [Luminespib] (partner 0.01 µM)
Result: 0.161

----------
test system: COR-L23; assay: relative viability (nuclei count vs DMSO), 5 days (fraction); higher = more cells survive; conditions: first compound 8 µM
# relative viability annotations

The cases that follow already have their relative viability on record.
Molecule	Test System	relative viability
O=c1cc(-c2cccc3c2Sc2ccccc2S3)oc(N2CCOCC2)c1 + CCNC(=O)c1noc(-c2cc(C(C)C)c(O)cc2O)c1-c1ccc(CN2CCOCC2)cc1 [Luminespib] (partner 0.01 µM)	COR-L23	0.703
O=c1cc(-c2cccc3c2Sc2ccccc2S3)oc(N2CCOCC2)c1 + CC(=O)c1c(C)c2cnc(Nc3ccc(N4CCNCC4)cn3)nc2n(C2CCCC2)c1=O [Palbociclib] (partner 0.5 µM)	COR-L23	0.34
O=c1cc(-c2cccc3c2Sc2ccccc2S3)oc(N2CCOCC2)c1 + CS(=O)(=O)N1CCN(Cc2cc3nc(-c4cccc5[nH]ncc45)nc(N4CCOCC4)c3s2)CC1 [Pictilisib] (partner 1 µM)	COR-L23	1.06
O=c1cc(-c2cccc3c2Sc2ccccc2S3)oc(N2CCOCC2)c1 + Cc1nc(Nc2ncc(C(=O)Nc3c(C)cccc3Cl)s2)cc(N2CCN(CCO)CC2)n1 [Dasatinib] (partner 0.075 µM)	COR-L23	0.504

Attention now turns to another entry.
Task: Give relative viability for the following molecule: O=c1cc(-c2cccc3c2Sc2ccccc2S3)oc(N2CCOCC2)c1 + Cc1cc(Nc2cc(N3CCN(C)CC3)nc(Sc3ccc(NC(=O)C4CC4)cc3)n2)n[nH]1 [Tozasertib] (partner 0.1 µM)
Result: 0.172

----------
test system: PC-3 [JPC-3]; assay: relative viability (nuclei count vs DMSO), 5 days (fraction); higher = more cells survive; conditions: first compound 0.8 µM
Measured Parameter: relative viability
// return just the number, without any unit appended

Molecule	Measurement
COc1nc(C)cnc1NS(=O)(=O)c1cccnc1-c1ccc(-c2nnco2)cc1 [Zibotentan] + Cc1nc(NC(=O)N2CCC[C@H]2C(N)=O)sc1-c1ccnc(C(C)(C)C(F)(F)F)c1 [Alpelisib] (partner 2 µM)	1.05
O=c1cc(-c2cccc3c2Sc2ccccc2S3)oc(N2CCOCC2)c1 + CC(=O)c1c(C)c2cnc(Nc3ccc(N4CCNCC4)cn3)nc2n(C2CCCC2)c1=O [Palbociclib] (partner 0.5 µM)	0.559

Task: For the molecule COc1nc(C)cnc1NS(=O)(=O)c1cccnc1-c1ccc(-c2nnco2)cc1 [Zibotentan] + C[C@]1(O)C[C@@H](c2nc(-c3ccc4ccc(-c5ccccc5)nc4c3)c3c(N)nccn32)C1 [Linsitinib] (partner 1 µM) , report relative viability.
Result: 1.01

----------
system: SW 900; assay: relative viability (nuclei count vs DMSO), 5 days (fraction); higher = more cells survive; settings: first compound 0.1 µM
Measured Parameter: relative viability
Just the number, please.

A selection of reference data follows.
Compound	relative viability
O=c1cc(N2CCOCC2)oc2c(-c3cccc4c3sc3ccccc34)cccc12 + O=C(c1cc(Cc2n[nH]c(=O)c3ccccc23)ccc1F)N1CCN(C(=O)C2CC2)CC1 [Olaparib] (partner 8 µM)	0.794
O=c1cc(N2CCOCC2)oc2c(-c3cccc4c3sc3ccccc34)cccc12 + COc1cccc2cc(-c3nc([C@H]4CC[C@H](C(=O)O)CC4)n4ncnc(N)c34)[nH]c12 [OSI-027] (partner 0.5 µM)	0.311
O=c1cc(N2CCOCC2)oc2c(-c3cccc4c3sc3ccccc34)cccc12 + NC(=O)Nc1cc(-c2cccc(F)c2)sc1C(=O)N[C@H]1CCCNC1 [AZD7762] (partner 0.2 µM)	0.378

Now examine the next entry.
Task: With SW 900 as the test system, provide measured relative viability for this compound: O=c1cc(N2CCOCC2)oc2c(-c3cccc4c3sc3ccccc34)cccc12 + CCNC(=O)c1noc(-c2cc(C(C)C)c(O)cc2O)c1-c1ccc(CN2CCOCC2)cc1 [Luminespib] (partner 0.01 µM)
Result: 0.173

----------
test system: LXF-289; assay: relative viability (nuclei count vs DMSO), 5 days (fraction); higher = more cells survive; details: first compound 0.8 µM
// NB: equality with 0.9 counts as f; only relative viability strictly below is t

Task: Does this compound meet the criterion relative viability < 0.9? O=c1cc(-c2cccc3c2Sc2ccccc2S3)oc(N2CCOCC2)c1 + COc1cccc2cc(-c3nc([C@H]4CC[C@H](C(=O)O)CC4)n4ncnc(N)c34)[nH]c12 [OSI-027] (partner 0.5 µM)
Result: t

Task: Lab note: confirm whether the reported relative viability for this compound is below 0.9, equality not counting. compound: COc1nc(C)cnc1NS(=O)(=O)c1cccnc1-c1ccc(-c2nnco2)cc1 [Zibotentan] + COc1cccc2cc(-c3nc([C@H]4CC[C@H](C(=O)O)CC4)n4ncnc(N)c34)[nH]c12 [OSI-027] (partner 0.5 µM)
Result: t

Task: Dear reviewer, please state whether COc1nc(C)cnc1NS(=O)(=O)c1cccnc1-c1ccc(-c2nnco2)cc1 [Zibotentan] + CC1(C)CCC(c2ccc(Cl)cc2)=C(CN2CCN(c3ccc(C(=O)NS(=O)(=O)c4ccc(N[C@H](CCN5CCOCC5)CSc5ccccc5)c(S(=O)(=O)C(F)(F)F)c4)cc3)CC2)C1 [Navitoclax] (partner 0.5 µM) has relative viability strictly beneath 0.9.
Result: f

Task: Please let me know if O=c1cc(-c2cccc3c2Sc2ccccc2S3)oc(N2CCOCC2)c1 + O=C(c1cc(Cc2n[nH]c(=O)c3ccccc23)ccc1F)N1CCN(C(=O)C2CC2)CC1 [Olaparib] (partner 8 µM) shows relative viability below 0.9.
Result: f

Task: Decide: relative viability of COc1nc(C)cnc1NS(=O)(=O)c1cccnc1-c1ccc(-c2nnco2)cc1 [Zibotentan] + CC(=O)Nc1cccc(-n2c(=O)n(C3CC3)c(=O)c3c(Nc4ccc(I)cc4F)n(C)c(=O)c(C)c32)c1 [Trametinib] (partner 0.02 µM) strictly below 0.9?
Result: t

----------
tested on: NCI-H3122; test: relative viability (nuclei count vs DMSO), 5 days (fraction); higher = more cells survive; conditions: first compound 6.325 µM
Measured Parameter: relative viability
Field format: numeric only.

Solved cases below.
Compound	Measurement
COCC1(CO)C(=O)C2CCN1CC2 (stereo not given) [PRIMA-1MET] + CC(=O)c1c(C)c2cnc(Nc3ccc(N4CCNCC4)cn3)nc2n(C2CCCC2)c1=O [Palbociclib] (partner 0.5 µM)	0.2
COCC1(CO)C(=O)C2CCN1CC2 (stereo not given) [PRIMA-1MET] + COc1cccc2cc(-c3nc([C@H]4CC[C@H](C(=O)O)CC4)n4ncnc(N)c34)[nH]c12 [OSI-027] (partner 0.5 µM)	0.74
COCC1(CO)C(=O)C2CCN1CC2 (stereo not given) [PRIMA-1MET] + O=C(CCCCCCC(=O)Nc1ccccc1)NO [Vorinostat] (partner 1 µM)	1.07
COCC1(CO)C(=O)C2CCN1CC2 (stereo not given) [PRIMA-1MET] + NC(=O)Nc1cc(-c2cccc(F)c2)sc1C(=O)N[C@H]1CCCNC1 [AZD7762] (partner 0.2 µM)	0.95

Task: Read off the recorded relative viability for COCC1(CO)C(=O)C2CCN1CC2 (stereo not given) [PRIMA-1MET] + CS(=O)(=O)N1CCN(Cc2cc3nc(-c4cccc5[nH]ncc45)nc(N4CCOCC4)c3s2)CC1 [Pictilisib] (partner 1 µM)
Result: 0.429
